Recorded values, source patent US20230406883A1.

For each entry below, report its hNK1R, IP3 Efficacy value.
molecular target: hNK1R (Homo sapiens, UniProt P25103); construct: host or cells: COS-7; test: IP3 assay (inositol trisphosphate, 3H-myoinositol) in transiently transfected COS-7 cells; assay type: cell-based; conditions: COS-7 cells; figure legends: percent of 10^-6 M NKA
Sequence (P25103 whole entry): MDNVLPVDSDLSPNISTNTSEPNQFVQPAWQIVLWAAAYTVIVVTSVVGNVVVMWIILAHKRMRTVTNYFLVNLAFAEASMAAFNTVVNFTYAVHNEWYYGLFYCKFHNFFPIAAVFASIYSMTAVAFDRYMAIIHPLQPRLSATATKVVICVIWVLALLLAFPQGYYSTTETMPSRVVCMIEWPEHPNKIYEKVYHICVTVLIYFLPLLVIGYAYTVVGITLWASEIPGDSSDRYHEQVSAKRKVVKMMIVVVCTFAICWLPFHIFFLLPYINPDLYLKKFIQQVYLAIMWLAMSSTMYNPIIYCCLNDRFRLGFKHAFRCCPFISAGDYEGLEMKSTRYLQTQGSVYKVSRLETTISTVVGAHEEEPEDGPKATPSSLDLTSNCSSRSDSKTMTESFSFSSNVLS
Numbered stars: 1 amine (or outer) side, 2 acyl side, 3 side chain; on linkers, the order of the positions; unused ones are H or OH. Square brackets hold non-standard residues; d marks the D form. Peptide text beside a SMILES is read from it. * marks the point of attachment. C20 diacid = O=C(O)CCCCCCCCCCCCCCCCCCC(=O)*; C18 diacid = O=C(O)CCCCCCCCCCCCCCCCC(=O)*; γGlu = O=C(O)[C@H](CCC(=O)[*:2])N[*:1]; NMeL = CN[C@@H](CC(C)C)C(=O)O; hSer = N[C@@H](CCO)C(=O)O; Nle = CCCC[C@H](N)C(=O)O; AEEA = NCCOCCOCC(=O)O
Answers are plain numbers, in %.

{"COMPOUND": "CCCC[C@H](NC(=O)[C@H](CC(C)C)N(C)C(=O)CNC(=O)[C@@H](NC(=O)[C@H](Cc1ccc(O)cc1)NC(=O)[C@H](CCCCN)NC(=O)[C@H](CC(=O)O)NC(=O)COCCOCCNC(=O)COCCOCCNC(=O)CC[C@H](NC(=O)CCCCCCCCCCCCCCCCCCC(=O)O)C(=O)O)C(C)C)C(N)=O [compound 380, *Asp;Lys;Tyr;Val;Gly;NmLeu;Nle;NH2] ({C20 diacid-γGlu-AEEA-AEEA}-DKYVG[NMeL][Nle]-NH2)", "UNIT ANNOTATION": "%", "MEASURED VALUE": 20}

Give hNK1R, IP3 Efficacy for each of the items listed below.
1. COCC[C@H](NC(=O)[C@H](CC(C)C)N(C)C(=O)CNC(=O)[C@@H](NC(=O)[C@H](Cc1ccccc1)NC(=O)[C@H](CCCCN)NC(=O)[C@H](CC(=O)O)NC(=O)COCCOCCNC(=O)COCCOCCNC(=O)CC[C@H](NC(=O)CCCCCCCCCCCCCCCCC(=O)O)C(=O)O)C(C)C)C(N)=O [compound 384, *Asp;Lys;Phe;Val;Gly;NmLeu;Metox;NH2] ({C18 diacid-γGlu-AEEA-AEEA}-DKFVG[NMeL][hSer](Me)-NH2)
2. CCCC[C@H](NC(=O)[C@H](CC(C)C)NC(=O)CNC(=O)[C@@H](NC(=O)[C@H](Cc1ccccc1)NC(=O)[C@H](CO)NC(=O)[C@H](CC(=O)O)NC(=O)[C@@H](NC(=O)[C@H](CCCCN)NC(=O)COCCOCCNC(=O)COCCOCCNC(=O)CC[C@H](NC(=O)CCCCCCCCCCCCCCCCC(=O)O)C(=O)O)[C@@H](C)O)C(C)C)C(N)=O [compound 308, *Lys;Thr;Asp;Ser;Phe;Val;Gly;Leu;Nle;NH2]

Ans:
1: 80; 2: 60
